Source: patent US20230000842A1

test-system: CLK2 kinase (Homo sapiens, UniProt P49760)
Sequence (P49760 whole entry): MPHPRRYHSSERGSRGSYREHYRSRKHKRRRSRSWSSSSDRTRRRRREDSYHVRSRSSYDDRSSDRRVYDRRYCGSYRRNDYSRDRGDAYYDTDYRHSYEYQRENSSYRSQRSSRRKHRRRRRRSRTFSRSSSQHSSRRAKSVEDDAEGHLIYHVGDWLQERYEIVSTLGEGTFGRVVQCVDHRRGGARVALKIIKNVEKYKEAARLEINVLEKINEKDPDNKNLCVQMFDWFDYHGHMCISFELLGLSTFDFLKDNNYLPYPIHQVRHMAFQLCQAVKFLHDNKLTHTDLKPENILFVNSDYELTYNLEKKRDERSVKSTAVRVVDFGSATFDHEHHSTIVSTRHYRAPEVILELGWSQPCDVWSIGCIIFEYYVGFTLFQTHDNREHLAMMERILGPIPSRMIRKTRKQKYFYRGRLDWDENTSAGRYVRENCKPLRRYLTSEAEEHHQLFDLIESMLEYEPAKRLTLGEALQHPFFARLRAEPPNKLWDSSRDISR
assay-remarks: CLK2 kinase activity assay (Z-lyte FRET);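 further: FRET read-out as coumarin to fluorescein emission ratio, unphosphorylated peptide as 0% and phosphorylated peptide as 100% controls, duplicate reactions, non-linear regression fit of dose-response curves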
experimental-parameters: Z-lyte Ser/Thr 6 peptide, 60 μM ATP, 1 h at room temperature
recorded-metric: EC50 (nM)

Sample answers from the record:
- O=C1COc2cccc(c2)-c2cncc3[nH]c(nc23)-c2n[nH]c3ccc(cc23)-c2cncc(c2)N1 [compound 620]: 3
- O=C(Nc1cncc(-c2cnc3[nH]nc(-c4cc5cccnc5[nH]4)c3c2)c1)c1ccccc1 [compound 436]: 8
- CC(C)Nc1cncc(-c2ccc3[nH]nc(-c4cc5c(-c6cccnc6)ccnc5[nH]4)c3c2)c1 [compound 361]: 5
- O=C(Nc1ccc(-c2ccccc2)nc1)c1n[nH]c2ccc(-c3cncc(CN4CCCCC4)c3)cc12 [compound 93]: 5

A = CN1CCN(c2ccnc3[nH]c(-c4n[nH]c5ccc(-c6cncc(NC(=O)CC(C)(C)C)c6)nc45)cc23)CC1 [compound 480]
B = CN(C)Cc1cncc(-c2ccc3[nH]nc(-c4cc5cnccc5[nH]4)c3n2)c1 [compound 442]
C = O=C(Nc1cc2cc(-c3cncc(NC4CCNC[C@@H]4F)n3)ccc2cn1)C1CC1 (stereo partly shown) [compound 603]
Input line: With regard to EC50, arrange the entries in ascending order, please. # the answer lists labels in the order requested
Output line: C, B, A
(C: 1 nM, B: 3 nM, A: 7 nM)
